From: the RNAGym collection of RNA variant scans (doi:10.7554/elife.80360)

I'd be grateful if you could share measured self-cleavage for these entries.
B1: HDV Ribozyme (parent)
chain: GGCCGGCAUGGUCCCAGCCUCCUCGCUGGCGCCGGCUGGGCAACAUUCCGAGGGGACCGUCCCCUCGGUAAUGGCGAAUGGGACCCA

Variants of: B1
EXPERIMENT: self-cleavage, relative activity (ratio to wild type); higher = more cleavage; co-transcriptional
One number for each entry.

Past entries and their recorded results:
SEQUENCE: GGCCGGCAUGGUCCCAGCAUCCUCGCUGGCGCCGGCUGGGCAACAUUCCGAGGGGACCGUCCCCUCGGUGAUGGCGAAUGGGACCCA [C19A A70G]
REPORTED ENDPOINT: self-cleavage
ASSAY RESULT: 0.136

SEQUENCE: GGCCGGCAUGGUCCCAGCCUCCUCGCUGGCGCCGGCUGGGCAACAUACCGAGGGGUCCGUCCCCUCGGUAAUGGCGAAUGGGACCCA [U47A A56U]
REPORTED ENDPOINT: self-cleavage
ASSAY RESULT: 0.856

SEQUENCE: GGCCGGCAUGGUGCCAGACUCCUCGCUGGCGCCGGCUGGGCAACAUUCCGAGGGGACCGUCCCCUCGGUAAUGGCGAAUGGGACCCA [C13G C18A]
REPORTED ENDPOINT: self-cleavage
ASSAY RESULT: 0.0831

SEQUENCE: GGCCGGCAUGGUCCCAGCCUCCUCGCUGGCGCCGGCUGGGCAACAUUCCGAGGGGACCGUCCCCUCGCUAAUGGCGAAUUGGACCCA [G68C G80U]
REPORTED ENDPOINT: self-cleavage
ASSAY RESULT: 0.322

SEQUENCE: GGCCGGCAUGGUCCCAGCCUCCUCGCUGGCGCCGGCUGGGCAACAUUCCGAGGGGACCGUCCCCUCGGGAAUGGCGAAUGGGACGCA [U69G C85G]
REPORTED ENDPOINT: self-cleavage
ASSAY RESULT: 1.01

Provide self-cleavage values for the following items, in order.
1. GGCCGGCAUGGUCACAGCCUCCUCGCUGGCGCCGACUGGGCAACAUUCCGAGGGGACCGUCCCCUCGGUAAUGGCGAAUGGGACCCA [C14A G35A]
2. GGCCGGCAUGGUCCCAGCCUCCUCACUGGCGCCGGCUGGGCAACAUUCCGAGGGGACCGGCCCCUCGGUAAUGGCGAAUGGGACCCA [G25A U60G]
3. GGCCGGCAUGGUCGCAGCCUCCUCGCUGGCGCCGGCUGGGCAACAUUCCGAGGGGACCGUCCCCUCGGUAAUGGGGAAUGGGACCCA [C14G C75G]
4. GGCCGGCAUGGUCCCAGCCUCCUCGCUGGAGCCGGCUGGGCAACAUUCUGAGGGGACCGUCCCCUCGGUAAUGGCGAAUGGGACCCA [C30A C49U]
5. GGCGGGCAUGGUCCCAGCCUCCUCGCGGGCGCCGGCUGGGCAACAUUCCGAGGGGACCGUCCCCUCGGUAAUGGCGAAUGGGACCCA [C4G U27G]
6. GGCCGGCAUGGUCCCAGCCUCCUCGCUGGCGCCGGCUGGGCAACAUUCCGAGGGGACCGUCCCCUCGGUAAUAGCUAAUGGGACCCA [G73A G76U]
7. GGCCGGCAUGGUCCCAGCCUCCUCGCUGGCGCCGGCUGGGCAACAUACCGAGGGGACCGUCCCCUCGGUAAUGGCGAAUGGGACUCA [U47A C85U]

Given back:
[0.0426, 0.125, 0.0554, 0.615, 0.268, 0.906, 1.03]

Please supply self-cleavage for each of the following items, keeping them in order.
1. GGCCGGCAUGGUCCCAGCCUCCUCGCUGGCGCCGGCUGGGCAACAUUCCGAGGGGACCGUCCCCUCGGUUAUGGCGAAUAGGACCCA [A70U G80A]
2. GGCCGGCAUCGUCCCAGCCUCCUCGCUGGCGCCGGCUGGGCAACAUUCCGAGGGGACCGUCCCCUCGGUUAUGGCGAAUGGGACCCA [G10C A70U]
3. GGCCGGCAUGGUCCCAGCCUCCUCGCUGGCGCCGGCUGGGCAACAUUCCGAGGGGACCGUCCCCUCGGUAAUGGGGAAUGGGAACCA [C75G C84A]
4. GGCCGGCAUGGUCCCAGCCUCCUCGCUGGCGCCGGCUGGGCAACAUUCCGAGGGGUCCGUCCCCUCGGUAAUGGCGAAUGGGACACA [A56U C85A]
5. GGCCGGCAUGGUCCCAGCCUCCUCGCUGGCGCCGGCUGGGCAACAUUCCGAGGGCACCGUCCCCUCGGUAAUGGCGAAUGGGACCCU [G55C A87U]
6. GGCCGGCAUGGUCCCAGCCUCCUCGCUGGCGCCGGCUGGGCAACAUUCCGAGGAUACCGUCCCCUCGGUAAUGGCGAAUGGGACCCA [G54A G55U]
7. GGCCGGCAUGGUCCCAGCCUCCUCGCUGGCGCUGGCUGGGCAACAUUCCGCGGGGACCGUCCCCUCGGUAAUGGCGAAUGGGACCCA [C33U A51C]

Given back:
0.445
0.65
0.259
0.966
1.02
0.993
1.3

State the recorded self-cleavage for every item in the following list.
1. GGCCGGCAAGGUCCCAGCCUCCUCGCUGGCGCCGGCUGGGCAACAUUCCGAGGGGACCGUCCCCUCGGUAAUGGCAAAUGGGACCCA [U9A G76A]
2. GGCCGGCAUGGUCCCAGCCUCCUCGCUGGCGCCGGCUGGGCAACAUUCCGAGGGGACCGUCCCCUCGGUCAUGCCGAAUGGGACCCA [A70C G74C]
3. GGCCGGCAUGGUCCCAACCUCCUCGCUGGCGCCGGCUGAGCAACAUUCCGAGGGGACCGUCCCCUCGGUAAUGGCGAAUGGGACCCA [G17A G39A]
4. GGCCGGCAUGGUCCCAGCCUCCUCCCUGGCGCCGGCUGGGCAACAUUACGAGGGGACCGUCCCCUCGGUAAUGGCGAAUGGGACCCA [G25C C48A]

Given back:
1. 0.955
2. 0.262
3. 0.095
4. 0.0415

For each listed entry, give its self-cleavage.
1. GCCCGGCAUGGUCCCAGCCUCCGCGCUGGCGCCGGCUGGGCAACAUUCCGAGGGGACCGUCCCCUCGGUAAUGGCGAAUGGGACCCA [G2C U23G]
2. GGCCGGCAUGGUCCCAGCCUCCUCGCUGUCGCCGGCUGGGCAACAUUCCGAGGGGACCGUCCCCUGGGUAAUGGCGAAUGGGACCCA [G29U C66G]
3. GGCCGGCAUGGUCCCAGCCCCCUCGUUGGCGCCGGCUGGGCAACAUUCCGAGGGGACCGUCCCCUCGGUAAUGGCGAAUGGGACCCA [U20C C26U]
4. GGCCGGCAUGGUCCCAGCCUCCUCGCUGGCGCCGGCCGGGCAACAUUCCGAGGGGACCGUCCCCUCGGUAUUGGCGAAUGGGACCCA [U37C A71U]

Given back:
1. 0.0268
2. 0.0652
3. 0.192
4. 0.807

Each variant below has a reported value. Please supply its self-cleavage.
1. GGCCGGCAUGGUCCCAGCCUACUCGCUGGCGCCGGCUGGGCAACAUUCCGAGGGGACCGUCCCCUCGGUAAUGGCUAAUGGGACCCA [C21A G76U]
2. GGCCGGCAUGGUCCCACCCUCCUCGCUGGCGCCGGCGGGGCAACAUUCCGAGGGGACCGUCCCCUCGGUAAUGGCGAAUGGGACCCA [G17C U37G]
3. GGCCGGCAUGGUCCCAGCCUCCUCGCUGGCGCCGGCUGGGCAACAUUCCUAGGGGACCGUCCCCUCGAUAAUGGCGAAUGGGACCCA [G50U G68A]
4. GGCCGGCAUGGUCCCAGCCUCCUCGCUGGCGCCGGCUGGGCAACAUUCCGAGGGGUCCGUCCCCUCGGUAAUGGCGAAUGGCACCCA [A56U G82C]
5. GGCCGGCAUGGUCCCAGCCUCCUCGCUGGCCCCGGCUGGGCAACAUUCCGAGGGGACCGUCCCGUCGGUAAUGGCGAAUGGGACCCA [G31C C64G]
6. GGCCGGCAUGGUCCCAGCCACCUCGCUGGCGCCGGCUGGGCAACAUUACGAGGGGACCGUCCCCUCGGUAAUGGCGAAUGGGACCCA [U20A C48A]
7. UGCCGGCAUGGUCCCAGCCUCCUCGCUGGCGCCGGCUGGGCAACAUUCCGAGGGAACCGUCCCCUCGGUAAUGGCGAAUGGGACCCA [G1U G55A]

Given back:
1. 0.0906
2. 0
3. 0.694
4. 0.172
5. 0.292
6. 0.0573
7. 0.208

I have 3 variants here; please give me self-cleavage for each one.
1. GGCCGGCAUGGUCGCAGCCUCCUCGCUGGCGCCGGCUGGGCAACAGUCCGAGGGGACCGUCCCCUCGGUAAUGGCGAAUGGGACCCA [C14G U46G]
2. GGCCGGCAUGGUACCAGCCUCCUCCCUGGCGCCGGCUGGGCAACAUUCCGAGGGGACCGUCCCCUCGGUAAUGGCGAAUGGGACCCA [C13A G25C]
3. GGCCGGCAUGGUCCCAGCCUCCUCGCUGGCGCCGGCUGGGCAACAUUCCGAGAGGACCGUCCCCUCGGUAAUGGCGAAUGGGAGCCA [G53A C84G]

Given back:
1. 0.237
2. 0.0773
3. 0.85

Please give self-cleavage for each item listed below.
1. GGCCGGCAUGGUCCCAGCCUCCACGCUGGCGCCGGCUGGGCAACAUUCCGAGGGGACCGUCCCCUCGGUAACGGCGAAUGGGACCCA [U23A U72C]
2. GGCCGGCAUGGUCCCAGCCUACUCGCUGGCGCCGGCUGGGCAACAUUCCGAGCGGACCGUCCCCUCGGUAAUGGCGAAUGGGACCCA [C21A G53C]
3. GGCCGGCAUGGUCCCAGCCUCCUCGCUGGCGCCGGCAGGGCAACAUUCCGAGGGGACCGUCGCCUCGGUAAUGGCGAAUGGGACCCA [U37A C62G]
4. GGCCGGCAUGGUCCCAGCCUCCACGCUGGCGCCGGCUGGGCAACAUUCCCAGGGGACCGUCCCCUCGGUAAUGGCGAAUGGGACCCA [U23A G50C]

Given back:
1: 0.332; 2: 0.0639; 3: 0.151; 4: 0.831

Fill in self-cleavage for each of the 5 variants listed.
1. GGCAGGCAUGGUCCCAGCCUCCUCGCUGGCGCCGGCUGGGCAACAUUCCGAGGGGACCGUCCCCUCGGUAAUGGCGAAUGGGUCCCA [C4A A83U]
2. GGCCGGCAAGGUCCGAGCCUCCUCGCUGGCGCCGGCUGGGCAACAUUCCGAGGGGACCGUCCCCUCGGUAAUGGCGAAUGGGACCCA [U9A C15G]
3. GGCCGGCAUGGUCCCAGCCUCCUUGCUGGCGCCGGCUGGGCAACAUUCCGAGGGGACCGUCCCCUCGGUAAUGGCGAAUGGGAACCA [C24U C84A]
4. AGCCGGCAUGGUCCCAGCCUCCUCACUGGCGCCGGCUGGGCAACAUUCCGAGGGGACCGUCCCCUCGGUAAUGGCGAAUGGGACCCA [G1A G25A]
5. GGCUGGCAUGGUCCCAGCCUCCUCGCUGGCGCCGGCUGGGCAACAUUCCGAGGGGACCGUCCCCUCGGUAAUGGCGAAUGGGACGCA [C4U C85G]

Given back:
1: 0.0959; 2: 0.499; 3: 0.543; 4: 0.0739; 5: 0.935
